assay-summary: CREB reporter modulators without forskolin, primary screen, cell-based, PC12, CRE-LacZ reporter, unstimulated (AID 1145)
study-conditions: no forskolin, luminescence, 4.5 h, higher = more signal, called active from +8 up or from −8 down
Activity calls are given as the source filed them.
outcome-measure: z-score

compound	z-score
COc1ccc([Si](C)(C)[C@H]2[C@H](CC(=O)N(CCO)Cc3ccccc3)O[C@@]3(C(=O)N(Cc4ccc(N5CCOC5=O)cc4)c4ccccc43)[C@@H]2C)cc1	1.05 (inactive)
C=CCC(OC(C)=O)[C@@H]1[C@@H](N(Cc2cccc3ccccc23)C(=O)Cc2ccc(OC)cc2)c2cc(OCCCO)ccc2N1C(=O)Cc1ccc(OC)cc1 (stereo partly drawn)	1.78 (inactive)

Query: Quick check: z-score of `C[N+](C)(C)CCCCNC(=O)[C@@H]1C[C@@H]2C(=O)NCC(=O)N2[C@@H]1c1cccc(OCCO)c1` ?
Result: -0.939 (inactive)

---

assay-summary: A549 cell viability effects, profiling panel, calcein-AM fluorescence, 48 h, basal (AID 1162)
study-conditions: higher = more signal
# binarize z-score: threshold 0.3 inclusive, high side 1.0, low side 0.0

A selection of reference data follows.
> print(dat)
                                   molecule  qualitative.label
1  CC(C)C(CO)N1C(=O)[C@@H]2C3C(=O)OCCC/C=C\[C@H]3OC23C=CCN(C(C)C)C(=O)[C@@H]13 (some centres not stated)                0.0
2  CO[C@H]1O[C@H](CO)[C@@H](OC(=O)Nc2ccccc2)[C@H](OC(=O)Nc2ccccc2-c2ccccc2)[C@@H]1OC(=O)Nc1ccccc1-c1ccccc1                0.0
3  CC1CC/C=C\[C@H]2OC34C=CCN(C(C)C)C(=O)[C@H]3N(C(CO)C(C)C)C(=O)[C@@H]4C2C(=O)O1 (some centres not stated)                1.0

With those in mind, consider the next molecule.
Query: Check this molecule for z-score at or above 0.3: `CC(C)[Si](C#C[Si](C(C)C)(C(C)C)C(C)C)(O[C@H](C)c1cn([C@H](C)c2ccccc2)nn1)C(C)C`
Result: 1.0

---

tested-on: Dickkopf-related protein 1 (Homo sapiens)
assay-summary: DKK1 binders on small-molecule microarrays, primary screen, biochemical, small-molecule microarray, 635 nm fluorescence scan (AID 1106);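 note: score merges emission near 667 nm with signal to noise over three replicate slides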
study-conditions: DKK1 binding, higher = more signal
# binarize composite z-score: threshold 0.1 inclusive, high side y, low side n

A selection of reference data follows.
molecule	qualitative-label
Cc1ccc(N2C(=O)c3ccccc3[C@](C)(C(=O)NCC(F)(F)F)[C@@H]2c2ccc(CO)cc2)nc1	n
COc1ccc([Si](C)(C)[C@H]2[C@H](CCO)O[C@@]3(C(=O)N(Cc4ccc(N5C(=O)c6cccc7cccc5c67)cc4)c4ccccc43)[C@@H]2C)cc1	n
C=C(CCCC)/C(=C/C[C@H](OC(=O)c1ccncc1)c1ccc(CO)o1)c1cnc2ccccc2c1	y
C=C(C(=O)CC[C@H](OC(C)=O)c1ccc(CO)o1)C(C)C	y

Query: Check this molecule for composite z-score at or above 0.1: CN1C=C(C(=O)OCCS(C)(=O)=O)C(C(=O)OCCS(C)(=O)=O)=CC(CCCO)=CC1c1cccs1 (stereo not given)
Result: y

---

assay-summary: inhibitors of CMV-promoter luciferase reporter, dose response, counter-screen for Pax8 inhibitor project, cell-based, HEK293, luminescence, dry powder (AID 743020);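 note: HEK293 cells stably expressing the CMV luciferase reporter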
study-conditions: SteadyGlo luminescence, 24 h; series mostly up to 35 µM
Entries with a potency or affinity are not part of this list. Inconclusive results are not listed. Calls of active or inactive are those of the source.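 Rule for the calls: active = signal-lowering compounds whose fitted half-maximal concentration is at or below twice the top tested dose in every run; inconclusive = runs disagree, flat 30 to 70% inhibition, or poor curve fit; inactive = the rest.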
outcome-measure: activity change, negative = inhibition

Recorded activity change, negative = inhibition, per entry:
> print(dat)
                                    compound                         outcome.measure  obs.value
 1  Cc1ccc(-c2csc3ncnc(Sc4nnc(CN5CCCCCC5=O)o4)c23)cc1  activity change, negative = inhibition   inactive
 2             O=C(O)c1cccc(N/N=C/c2cccs2)c1  activity change, negative = inhibition   inactive
 3  C=CCC[C@@H](Cc1ccc(F)cc1)C(=O)OC[C@@H](Cc1c[nH]c2ccccc12)NC(=O)[C@H](CC=C)CC(=O)N(CCO)Cc1ccccc1  activity change, negative = inhibition   inactive
 4  O=C(C[C@H]1CC[C@@H]2[C@H](COC[C@@H](O)CN2Cc2ccc(F)cc2)O1)NCc1ccccc1Cl  activity change, negative = inhibition   inactive
 5  COc1ccccc1-c1ccc2c(c1)[C@@H]1[C@@H](CCN1S(=O)(=O)c1ccccc1F)[C@H](CO)N2  activity change, negative = inhibition   inactive
 6  COc1ccc(S(=O)(=O)Nc2ccc3c(c2)C(=O)N([C@H](C)CO)C[C@H](C)[C@@H](CN(C)Cc2ccc(C(F)(F)F)cc2)OCCCC[C@H](C)O3)cc1  activity change, negative = inhibition   inactive
 7  C[C@@H]1CCCCO[C@@H](CN(C)Cc2ccncc2)[C@H](C)CN([C@H](C)CO)C(=O)c2cc(NC(=O)Nc3ccc(C(F)(F)F)cc3)ccc2O1  activity change, negative = inhibition   inactive
 8  O=C(c1cccs1)N1C[C@H](O)[C@@H](n2cc(C3CC3)nn2)C[C@@H]1c1ccccc1  activity change, negative = inhibition   inactive
 9  C[C@@H]1CCCCO[C@@H](CN(C)Cc2ccc(Cl)c(Cl)c2)[C@H](C)CN([C@H](C)CO)C(=O)c2cc(NC(=O)Nc3ccccc3)ccc2O1  activity change, negative = inhibition   inactive
10  C[C@H]1CN([C@@H](C)CO)C(=O)Cc2cc(NC(=O)NC3CCCCC3)ccc2O[C@@H]1CN(C)Cc1ccc(-c2ccccc2)cc1  activity change, negative = inhibition   inactive

Query: Quick check: activity change, negative = inhibition of `COc1ccc(S(=O)(=O)Nc2ccc3c(c2)C(=O)N([C@H](C)CO)C[C@H](C)[C@@H](CN(C)S(=O)(=O)c2ccc(F)cc2)OCCCC[C@H](C)O3)cc1` ?
Result: inactive

Query: Quick check: activity change, negative = inhibition of `O=C1CN(S(=O)(=O)Cc2ccccc2)C[C@@H]2[C@@H](c3ccc(C#CCC4CCCC4)cc3)[C@@H](CO)N12` ?
Result: inactive

Query: Quick check: activity change, negative = inhibition of `C[C@H](CO)N1C[C@H](C)[C@@H](CN(C)C(=O)NC2CCCCC2)Oc2cc(C#Cc3ccc(F)cc3)ccc2S1(=O)=O` ?
Result: inactive

Query: Quick check: activity change, negative = inhibition of `CN(C)CCN(C(=O)/C=C/c1cccs1)c1nc2c(F)cc(F)cc2s1` ?
Result: inactive

Query: Quick check: activity change, negative = inhibition of `C[C@@H]1CN([C@H](C)CO)C(=O)c2cc(NC(=O)c3ccncc3)ccc2O[C@@H](C)CCCCO[C@H]1CN(C)Cc1ccc(C(F)(F)F)cc1` ?
Result: inactive

Query: Quick check: activity change, negative = inhibition of COC1OC(COCc2ccccc2)C2OC(C)(C)OC2C1O (stereo unspecified) ?
Result: inactive

---

assay-summary: COS7 lysate on small-molecule microarray, probe aHis, 635 nm (AID 1123);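 note: z-score combines 667nm fluorescence intensity with signal-to-noise per printed compound spot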
study-conditions: COS7 cell lysate, fluorescence, higher = more signal
# binarize composite z-score: threshold 1 inclusive, high side T, low side F

A selection of reference data follows.
chem-smiles	qualitative-label
CC(C)CNC(=O)[C@@H]1c2ccccc2C(=O)N(Cc2ccc(OC(F)(F)F)cc2)[C@H]1c1ccc(CO)cc1	T
COCCCNC(=O)[C@@]1(Cc2ccccc2)N=C(c2ccc(OCCCO)cc2)O[C@H]1c1ccccc1N=[N+]=[N-]	F
C=CCN1C(=O)[C@@]2(O[C@@H](CCO)[C@H]([Si](C)(C)c3ccc(OC)cc3)[C@H]2C)c2cc(N3C(=O)c4cccc5cccc3c45)ccc21	F
CCOC(=O)C[C@H]1[C@H](OC(=O)Cc2ccc3c(c2)OCO3)[C@@H](NC(=O)c2ccc3ccccc3c2)c2cc(OCCCO)ccc2N1C(=O)c1ccc2ccccc2n1	F
O=C(NO)[C@]1(Cc2ccccc2)N=C(c2ccc(OCCCO)cc2)O[C@@H]1c1ccccc1	F

Query: Check this compound for composite z-score at or above 1: `CO[C@H]1O[C@H](CO)[C@@H](OC(=O)Nc2ccccc2)[C@H](OC(=O)Nc2ccc3c(c2)OCO3)[C@H]1OC(=O)Nc1ccc2c(c1)OCO2`
Result: T

Query: Check this compound for composite z-score at or above 1: `COCCOC(=O)N1C(=O)[C@@]2(c3cc(C#CCNC(N)=O)ccc31)[C@H](C(=O)NC[C@H](O)c1ccccc1)[C@H]1C(=O)O[C@H](c3ccccc3)[C@H](c3ccccc3)N1[C@@H]2c1ccc(O)cc1`
Result: T

---

assay-summary: cytotoxicity in PAX8-dependent RMG-1 cells, dose response, cell-based, cherry-pick (AID 687029);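 note: cells exposed to compound for 96 hours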
study-conditions: RMG-1 viability, CellTiterGlo ATP luminescence, 96 h; series mostly up to 35 µM
Measured potencies and affinities stand elsewhere. The source made the active and inactive calls.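 The calls were made as follows: active = signal drop whose fitted half-maximal concentration is at most twice the top valid dose, in every test run; inconclusive = mixed calls across runs, poor fit, or flat 30 to 70% inhibition; inactive = wrong direction, flat within 30%, or potency beyond limit.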
outcome-measure: activity change, negative = inhibition

> print(dat)
                                chem.smiles  obs.value
1  C[C@@H]1CCCCO[C@@H](CN(C)C(=O)Nc2cccc3ccccc23)[C@H](C)CN([C@H](C)CO)C(=O)c2cc(NS(=O)(=O)c3ccc(Cl)cc3)ccc2O1   inactive
2  O=C(c1ccc(F)cc1)N1CC(=O)N2[C@@H](CO)[C@@H](c3ccc(C#Cc4ccc(F)cc4)cc3)[C@@H]2C1   inactive
3  C[C@H](CO)N1C[C@H](C)[C@@H](CN(C)C(=O)Nc2cccc3ccccc23)OCCCC[C@H](C)Oc2ccc(NC(=O)c3ccncc3)cc2C1=O   inactive
